These records show IC50 for Choline kinase alpha (Homo sapiens).

Here's what some known entries look like.
chemical string | IC50
CN(c1ccc(Cl)cc1)c1cc[n+](Cc2ccc(-c3ccc(C[n+]4ccc(N(C)c5ccc(Cl)cc5)cc4)cc3)cc2)cc1 | 1.8 µM
c1cc(C[n+]2ccc(N3CCCC3)cc2)ccc1C[n+]1ccc(N2CCCC2)cc1 | 24 µM
c1c[n+](C[C@H]2C[C@@H]2C[n+]2ccc(N3CCCCC3)cc2)ccc1N1CCCCC1 | 98 µM

Report IC50 for each item below.
1. CN(c1cc[n+](C[C@H]2C[C@@H]2C[n+]2ccc(N(C)c3cc(Cl)cc(Cl)c3)cc2)cc1)c1cc(Cl)cc(Cl)c1
2. c1cc(C[n+]2ccc(N3CCCC3)cc2)cc(C[n+]2ccc(N3CCCC3)cc2)c1
3. CN(c1ccc(Cl)cc1)c1cc[n+](C[C@H]2C[C@@H]2C[n+]2ccc(N(C)c3ccc(Cl)cc3)cc2)cc1
4. CN(c1ccccc1)c1cc[n+](Cc2cccc(-c3cccc(C[n+]4ccc(N(C)c5ccccc5)cc4)c3)c2)cc1

["> 100 µM", "84.2 µM", "48.2 µM", "0.4 µM"]
